# System: HCMV engineered virus RC256
# assay.procedure: microbe, parasite or virus in culture
# Type: cell-based, human cytomegalovirus
# condition.summary: Human betaherpesvirus 5, Fibroblast, read-out: Antiviral Activity RC256, first value (EC50)
Catalogue of molecules with associated pEC50
Friendly reminder that pEC50 comes from taking -log10 of the concentration in mol/L.

Some solved cases for reference:
| molecule | value.kind | endpoint.result |
| --- | --- | --- |
| COc1ccc(C[C@H](Nc2nc3ccc(N(C)C)c(C)c3c(=O)o2)C(=O)N(C)c2ccc(Cl)cc2)cc1 [Example 16c] | pEC50 | 4.74 |
| COC(=O)[C@H](CCS(C)(=O)=O)Nc1nc2ccc(NC(=O)OC(C)(C)C)c(C)c2c(=O)o1 | pEC50 | 4.00 |
| COC[C@H](Cc1ccccc1)Nc1nc2cccc(C)c2c(=O)o1 | pEC50 | 4.42 |
| COc1ccc(C[C@H](Nc2nc3ccc(NC(=O)Oc4ccccc4)c(C)c3c(=O)o2)C(=O)N(C)Cc2ccccc2)cc1 [Example 11q] | pEC50 | 4.74 |
| COc1ccc(C[C@H](Nc2nc3ccc(CNC(=O)OCc4ccncc4)c(C)c3c(=O)o2)C(=O)N(C)Cc2ccccc2)cc1 [Example 18d] | pEC50 | 4.92 |

Answer with reported pEC50 of Cc1c(CNC(=O)NCc2ccccc2)ccc2nc(N[C@@H](Cc3ccccc3)C(=O)N(C)Cc3ccccc3)oc(=O)c12 [Example 12h]
4.74

State its pEC50: Cc1c(CNS(C)(=O)=O)cc(Br)c2nc(N[C@@H](Cc3ccccc3)C(=O)N(C)Cc3ccccc3)oc(=O)c12 [Example 15j]
4.89

Quickly give me recorded pEC50 for Cc1c(NC(=O)N[C@H](C)c2ccccc2)ccc2nc(N[C@H](C)c3ccccc3)oc(=O)c12 [Example 12c]
4.77
